# Test system: SK-BR-3
# Assay Notes: Cytotoxicity against HER2-positive human SKBR3 cells assessed as redution in cell viability incubated for 72 hrs by SRB assay
# Format: functional, cell-based
# Condition Parameters: SK-BR-3, 72 h
Criterion: IC50 strictly less than 3 µM. Met: Yes. Not met: No.

Take a look at these entries with their results.
{"Compound": "CC(=O)O[C@H]1[C@H](OC(C)=O)[C@@H](OC2=CC(=O)c3ccccc3C2=O)O[C@@H](C)[C@H]1OC(C)=O", "Assay Target": "SK-BR-3", "Class Label": "Yes"}
{"Compound": "CC(=O)N[C@H]1[C@@H](OC2=CC(=O)c3ccccc3C2=O)O[C@H](COC(C)=O)[C@@H](OC(C)=O)[C@@H]1OC(C)=O", "Assay Target": "SK-BR-3", "Class Label": "No"}

Attention now shifts to the item below.
[in] Please check: IC50 for O=C1C=C(O)C(=O)c2ccccc21 [LAWSONE] , strictly under 3 µM or not?
[out] No

* * *

# Test system: SK-BR-3
# Assay Notes: Cytotoxicity against HER2-positive human SKBR3 cells assessed as redution in cell viability incubated for 72 hrs by SRB assay
# Assay type: functional, cell-based
# Condition Parameters: SK-BR-3, 72 h
# IC50 values compiled below
Number only, in µM; omit the unit.

{"Smiles Repr": "CC(=O)O[C@H]1[C@H](OC(C)=O)[C@H](OC2=CC(=O)c3ccccc3C2=O)O[C@@H](C)[C@H]1OC(C)=O", "Measure Unit": "µM", "Numeric Value": 9.52}

With those in mind, consider the next compound.
Sure, the documented IC50 for CC(=O)OC[C@H]1O[C@@H](n2cc(COC3=CC(=O)c4ccccc4C3=O)nn2)[C@H](OC(C)=O)[C@@H](OC(C)=O)[C@H]1OC(C)=O is 1.27

* * *

# Test system: SK-BR-3
# Assay Notes: Cytotoxicity against HER2-positive human SKBR3 cells assessed as redution in cell viability incubated for 72 hrs by SRB assay
# Assay type: functional, cell-based
# Condition Parameters: SK-BR-3, 72 h
molecules and their reported IC50
State just the number; it will be interpreted in µM.

# annotated cases, reported IC50 shown
{"Smiles Repr": "CC(=O)N[C@H]1[C@H](OC2=CC(=O)c3ccccc3C2=O)O[C@H](COC(C)=O)[C@@H](OC(C)=O)[C@@H]1OC(C)=O", "Assay Target": "SK-BR-3", "IC50, µM": 8.3}
{"Smiles Repr": "CC(=O)OC[C@H]1O[C@H](OC2=CC(=O)c3ccccc3C2=O)[C@H](OC(C)=O)[C@@H](OC(C)=O)[C@@H]1OC(C)=O", "Assay Target": "SK-BR-3", "IC50, µM": 2.11}
{"Smiles Repr": "O=C1C=C(OCc2cn([C@@H]3O[C@H](CO)[C@@H](O)[C@H](O)[C@H]3O)nn2)C(=O)c2ccccc21", "Assay Target": "SK-BR-3", "IC50, µM": 34.7}
{"Smiles Repr": "CC(=O)OC[C@H]1O[C@H](OC2=CC(=O)c3ccccc3C2=O)[C@H](OC(C)=O)[C@@H](OC(C)=O)[C@H]1OC(C)=O", "Assay Target": "SK-BR-3", "IC50, µM": 2.51}
{"Smiles Repr": "CC(=O)OC[C@H]1O[C@@H](OC2=CC(=O)c3ccccc3C2=O)[C@H](OC(C)=O)[C@@H](OC(C)=O)[C@H]1OC(C)=O", "Assay Target": "SK-BR-3", "IC50, µM": 8.86}

// CC(=O)OC[C@H]1O[C@@H](OC2=CC(=O)c3ccccc3C2=O)[C@H](OC(C)=O)[C@@H](OC(C)=O)[C@@H]1OC(C)=O : IC50 value = 2.96

* * *

# Assay Notes: Selectivity index, ratio of IC50 for human HGF cells to IC50 for SKBR3 cells
# Format: toxicity
# Condition Parameters: HGF cells versus SKBR3 cells, read-out: Ratio IC50
Observable: selectivity ratio
Kindly provide the number alone.

{"Smiles Repr": "CC(=O)OC[C@H]1O[C@@H](n2cc(COC3=CC(=O)c4ccccc4C3=O)nn2)[C@H](OC(C)=O)[C@@H](OC(C)=O)[C@H]1OC(C)=O", "Numeric Value": 22}

From here, focus on the item given below.
Item: CC(=O)OC[C@H]1O[C@@H](n2cc(COC3=CC(=O)c4ccccc4C3=O)nn2)[C@H](OC(C)=O)[C@@H](OC(C)=O)[C@@H]1OC(C)=O | selectivity ratio: 22

* * *

Listed here are compounds together with their documented IC50.
# Tested on: SK-BR-3
# Assay Notes: Cytotoxicity against HER2-positive human SKBR3 cells assessed as redution in cell viability incubated for 72 hrs by SRB assay
# Format: functional, cell-based
# Condition Parameters: SK-BR-3, 72 h
State just the number; it will be interpreted in µM.

{"Smiles Repr": "CC(=O)O[C@@H]1[C@H](OC(C)=O)[C@H](C)O[C@H](n2cc(COC3=CC(=O)c4ccccc4C3=O)nn2)[C@H]1OC(C)=O", "Assay Target": "SK-BR-3", "Observable": "IC50", "Numeric Value": 3.32}
{"Smiles Repr": "CC(=O)N[C@@H]1[C@@H](OC(C)=O)[C@H](OC(C)=O)[C@@H](COC(C)=O)O[C@H]1n1cc(COC2=CC(=O)c3ccccc3C2=O)nn1", "Assay Target": "SK-BR-3", "Observable": "IC50", "Numeric Value": 17}

Attention now shifts to the item below.
Consider CC(=O)OC[C@H]1O[C@@H](n2cc(COC3=CC(=O)c4ccccc4C3=O)nn2)[C@H](OC(C)=O)[C@@H](OC(C)=O)[C@@H]1OC(C)=O . Its measured IC50 is 0.78
